# protocol.text: Solid stability, 60° C. for 10 days in the dark (HPLC)
# Assay type: physicochemical
# study.conditions: solid, 60° C., 10 days, dark; content versus time 0
reported.endpoint: Stability(%)
Answer with a number only, understood to be in %.

C[C@H](N=C[C@H](O)[C@@H](O)[C@H](O)[C@H](O)CO)C(=O)N[C@@H](C)C(=O)N[C@@H](CC(N)=O)C(=O)Nc1ccc(COC(=O)N(C)CCNC(=O)c2cc(Oc3ccc(NC(=O)Nc4ccc(Cl)c(C(F)(F)F)c4)cc3)ccn2)cc1 [Compound C4, Glucose-AAN-PABC-Compound a, reference compound] = 85.7

Task: Which Stability(%) value is on record for C[C@H](N)C(=O)N[C@@H](C)C(=O)N[C@@H](CC(N)=O)C(=O)Nc1ccc(COC(=O)N(C)CCNC(=O)c2cc(Oc3ccc(NC(=O)Nc4ccc(Cl)c(C(F)(F)F)c4)cc3)ccn2)cc1 [Compound C2, AAN-PABC-Compound a, reference compound] ?
Output: 89.4

Task: Which Stability(%) value is on record for COc1cccc2c1C(=O)c1c(O)c3c(c(O)c1C2=O)C[C@](O)(C(=O)CO)CC3OC1C[C@H](NC(=O)OCc2ccc(NC(=O)C(CC(N)=O)NC(=O)C(C)NC(=O)C(C)NC(=O)[C@H](O)[C@H](O)[C@@H](O[C@@H]3O[C@H](CO)[C@H](O)[C@H](O)[C@H]3O)[C@H](O)CO)cc2)[C@H](O)[C@H](C)O1 (some centres unmarked) [Compound S3, Lacto-AAN-PABC-Adriamycin] ?
Output: 99.8

Task: Which Stability(%) value is on record for CC(NC(=O)C(C)NC(=O)[C@H](O)[C@H](O)[C@@H](O[C@@H]1O[C@H](CO)[C@H](O)[C@H](O)[C@H]1O)[C@H](O)CO)C(=O)NC(CC(N)=O)C(=O)Nc1ccc(COC(=O)N(C)CCNC(=O)c2cc(Oc3ccc(NC(=O)Nc4ccc(Cl)c(C(F)(F)F)c4)cc3)ccn2)cc1 (some centres unmarked) [Compound S1, Lacto-AAN-PABC-compound a] ?
Output: 96.7

Task: Which Stability(%) value is on record for CC(NC(=O)C(NC(=O)[C@H](O)[C@H](O)[C@@H](O[C@@H]1O[C@H](CO)[C@H](O)[C@H](O)[C@H]1O)[C@H](O)CO)C(C)C)C(=O)NC(CC(N)=O)C(=O)Nc1ccc(COC(=O)N(C)CCNC(=O)c2cc(Oc3ccc(NC(=O)Nc4ccc(Cl)c(C(F)(F)F)c4)cc3)ccn2)cc1 (some centres unmarked) [Compound S7, Lacto-VAN-PABC-compound a] ?
Output: 97.2

====

# Test system: CT26 tumor cells
# protocol.text: CT26 treatment model (Example 17)
# Assay type: in vivo, mice
# study.conditions: CT26 model as in Example 15
reported.endpoint: Tumor inhibition rate/% (at week 7) (%)
Answer with a number only, understood to be in %.

Example entries begin here.
CC(NC(=O)C(C)NC(=O)[C@H](O)[C@H](O)[C@@H](O[C@@H]1O[C@H](CO)[C@H](O)[C@H](O)[C@H]1O)[C@H](O)CO)C(=O)NC(CC(N)=O)C(=O)Nc1ccc(COC(=O)N2CC(C)(C)c3ccc(NC(=O)c4cccnc4NCc4ccncc4)cc32)cc1 (stereo partly drawn) = 66.7
CC(NC(=O)C(NC(=O)[C@H](O)[C@H](O)[C@@H](O[C@@H]1O[C@H](CO)[C@H](O)[C@H](O)[C@H]1O)[C@H](O)CO)C(C)O)C(=O)NC(CC(N)=O)C(=O)Nc1ccc(COC(=O)N2CC(C)(C)c3ccc(NC(=O)c4cccnc4NCc4ccncc4)cc32)cc1 (stereo partly drawn) = 71.7
CC(NC(=O)C(NC(=O)[C@H](O)[C@H](O)[C@@H](O[C@@H]1O[C@H](CO)[C@H](O)[C@H](O)[C@H]1O)[C@H](O)CO)C(C)C)C(=O)NC(CC(N)=O)C(=O)Nc1ccc(COC(=O)Nc2c(-c3nc4ccc(N5CCN(C)CC5)cc4[nH]3)c(=O)[nH]c3cccc(F)c23)cc1 (stereo partly drawn) = 69.3
CC(NC(=O)C(C)NC(=O)[C@H](O)[C@H](O)[C@@H](O[C@@H]1O[C@H](CO)[C@H](O)[C@H](O)[C@H]1O)[C@H](O)CO)C(=O)NC(CC(N)=O)C(=O)Nc1ccc(COC(=O)Nc2c(-c3nc4ccc(N5CCN(C)CC5)cc4[nH]3)c(=O)[nH]c3cccc(F)c23)cc1 (stereo partly drawn) = 60.1
COc1cccc2c1C(=O)c1c(O)c3c(c(O)c1C2=O)C[C@](O)(C(=O)CO)CC3OC1C[C@H](NC(=O)OCc2ccc(NC(=O)C(CC(N)=O)NC(=O)C(C)NC(=O)C(NC(=O)[C@H](O)[C@H](O)[C@@H](O[C@@H]3O[C@H](CO)[C@H](O)[C@H](O)[C@H]3O)[C@H](O)CO)C(C)O)cc2)[C@H](O)[C@H](C)O1 (stereo partly drawn) = 70.2

Task: Which Tumor inhibition rate/% (at week 7) value is on record for COc1cccc2c1C(=O)c1c(O)c3c(c(O)c1C2=O)C[C@@](O)(C(=O)CO)C[C@@H]3O[C@H]1C[C@H](N)[C@H](O)[C@H](C)O1 [Adriamycin, reference compound] ?
Output: 14.6

====

# protocol.text: Solid stability, 60° C. for 10 days in the dark (HPLC)
# Type: physicochemical
# study.conditions: solid, 60° C., 10 days, dark; content versus time 0
reported.endpoint: Stability(%)
Answer with a number only, understood to be in %.

CC(NC(=O)C(NC(=O)[C@H](O)[C@H](O)[C@@H](O[C@@H]1O[C@H](CO)[C@H](O)[C@H](O)[C@H]1O)[C@H](O)CO)C(C)C)C(=O)NC(CC(N)=O)C(=O)Nc1ccc(COC(=O)N(C)CCNC(=O)c2cc(Oc3ccc(NC(=O)Nc4ccc(Cl)c(C(F)(F)F)c4)c(F)c3)ccn2)cc1 (stereo partly drawn) [Compound S8, Lacto-VAN-PABC-compound b] = 98.4
CC(NC(=O)C(C)NC(=O)[C@H](O)[C@H](O)[C@@H](O[C@@H]1O[C@H](CO)[C@H](O)[C@H](O)[C@H]1O)[C@H](O)CO)C(=O)NC(CC(N)=O)C(=O)Nc1ccc(COC(=O)N(C)CCNC(=O)c2cc(Oc3ccc(NC(=O)Nc4ccc(Cl)c(C(F)(F)F)c4)c(F)c3)ccn2)cc1 (stereo partly drawn) [Compound S2, Lacto-AAN-PABC-Compound b] = 99.6

As a next step, examine the compound that follows.
Task: Which Stability(%) value is on record for CC(NC(=O)C(NC(=O)[C@H](O)[C@H](O)[C@@H](O[C@@H]1O[C@H](CO)[C@H](O)[C@H](O)[C@H]1O)[C@H](O)CO)C(C)O)C(=O)NC(CC(N)=O)C(=O)Nc1ccc(COC(=O)N(C)CCNC(=O)c2cc(Oc3ccc(NC(=O)Nc4ccc(Cl)c(C(F)(F)F)c4)c(F)c3)ccn2)cc1 (stereo partly drawn) [Compound S14, Lacto-TAN-PABC-compound b] ?
Output: 97.8

====

# Test system: CT26 tumor cells
# protocol.text: CT26 immunotherapy model (Example 15)
# Format: in vivo, mice
# study.conditions: IV ⅓ MTD once a week, 6 weeks
Quick reference for Tumor inhibition rate % (Day 42) among some compounds

CC(NC(=O)C(NC(=O)[C@H](O)[C@H](O)[C@@H](O[C@@H]1O[C@H](CO)[C@H](O)[C@H](O)[C@H]1O)[C@H](O)CO)C(C)O)C(=O)NC(CC(N)=O)C(=O)Nc1ccc(COC(=O)N(C)CCNC(=O)c2cc(Oc3ccc(NC(=O)Nc4ccc(Cl)c(C(F)(F)F)c4)c(F)c3)ccn2)cc1 (stereo partly drawn) [Compound S14, Lacto-TAN-PABC-compound b] = 85.%

Task: Missing value: Tumor inhibition rate % (Day 42), CT26 tumor cells, entry CC(NC(=O)C(C)NC(=O)[C@H](O)[C@H](O)[C@@H](O[C@@H]1O[C@H](CO)[C@H](O)[C@H](O)[C@H]1O)[C@H](O)CO)C(=O)NC(CC(N)=O)C(=O)Nc1ccc(COC(=O)N(C)CCNC(=O)c2cc(Oc3ccc(NC(=O)Nc4ccc(Cl)c(C(F)(F)F)c4)cc3)ccn2)cc1 (stereo partly drawn) [Compound S1, Lacto-AAN-PABC-compound a] . Fill in?
Output: 94.7%

Task: Missing value: Tumor inhibition rate % (Day 42), CT26 tumor cells, entry CC(NC(=O)C(NC(=O)[C@H](O)[C@H](O)[C@@H](O[C@@H]1O[C@H](CO)[C@H](O)[C@H](O)[C@H]1O)[C@H](O)CO)C(C)C)C(=O)NC(CC(N)=O)C(=O)Nc1ccc(COC(=O)N(C)CCNC(=O)c2cc(Oc3ccc(NC(=O)Nc4ccc(Cl)c(C(F)(F)F)c4)c(F)c3)ccn2)cc1 (stereo partly drawn) [Compound S8, Lacto-VAN-PABC-compound b] . Fill in?
Output: 73.4%
